Test system: Methicillin Resistant Staphylococcus aureus strain USA 300 (NRS384)
particulars: Method A; MRSA USA 300 (NRS384); 35° C., 22 hours
Square brackets hold non-standard residues; d marks the D form. Peptide text beside a SMILES is read from it. * marks the point of attachment. ξ: configuration not given here. Biphenylcarbonyl(4'-Bu) = CCCCc1ccc(-c2ccc(C(=O)*)cc2)cc1; Benzoyl(4-hexyl) = CCCCCCc1ccc(C(=O)*)cc1; NMeThr(3ξ) = CN[C@H](C(=O)O)C(C)O; Myristoyl = CCCCCCCCCCCCCC(=O)*; Thr(3ξ) = CC(O)[C@H](N)C(=O)O; NMeK = CN[C@@H](CCCCN)C(=O)O; boroGly = OB(O)CN*; ξP = O=C(O)C1CCCN1; ξA = CC(N)C(=O)O
For each of the compounds below, state its MIC (μg/mL) S. aureus.

Give recorded MIC (μg/mL) S. aureus. CCCCCCCCCCCCCC(=O)N[C@H](CO)C(=O)N[C@H](C)C(=O)NCC(=O)N(C)[C@H](C(=O)N[C@@H](C)C(=O)N[C@@H](CC(C)C)C(=O)NCB(O)O)C(C)O (stereo partly drawn) [Compound 122] (Myristoyl-[dS][dA]G[NMeThr(3ξ)]AL-boroGly)
40 µg/mL

Return value of MIC (μg/mL) S. aureus for input CCCCc1ccc(-c2ccc(C(=O)N[C@H](CO)C(=O)N[C@H](C)C(=O)NCC(=O)N(C)[C@@H](CCCCN)C(=O)N[C@@H](C)C(=O)N[C@@H](CC(N)=O)C(=O)NCB(O)O)cc2)cc1 [Compound 120] ({Biphenylcarbonyl(4'-Bu)}-[dS][dA]G[NMeK]AN-boroGly) , no commentary.
>64 µg/mL

Give a short answer stating reported MIC (μg/mL) S. aureus for CCCCc1ccc(-c2ccc(C(=O)N[C@H](CO)C(=O)N[C@H](C)C(=O)NCC(=O)N3CCCC3C(=O)N[C@@H](C)C(=O)N[C@@H](CC(N)=O)C(=O)NCB(O)O)cc2)cc1 (stereo partly drawn) [Compound 117] ({Biphenylcarbonyl(4'-Bu)}-[dS][dA]G[ξP]AN-boroGly) .
>64 µg/mL

Please supply the value of reported MIC (μg/mL) S. aureus for the item CCCCCCc1ccc(C(=O)N[C@H](CO)C(=O)N[C@H](C)C(=O)NCC(=O)N(C)[C@H](C(=O)N[C@@H](C)C(=O)N[C@@H](CC(C)C)C(=O)NCC=O)C(C)O)cc1 (stereo partly drawn) [Compound 102] ({Benzoyl(4-hexyl)}-[dS][dA]G[NMeThr(3ξ)]ALG-aldehyde)
>64 µg/mL

Give me measured MIC (μg/mL) S. aureus, please, for this compound: CCCCCCc1ccc(C(=O)N[C@H](CO)C(=O)N[C@H](C)C(=O)NCC(=O)N(C)[C@H](C(=O)N[C@@H](C)C(=O)N[C@@H](CC(N)=O)C(=O)NCB(O)O)C(C)O)cc1 (stereo partly drawn) [Compound 124] ({Benzoyl(4-hexyl)}-[dS][dA]G[NMeThr(3ξ)]AN-boroGly)
>64 µg/mL

Tell me its MIC (μg/mL) S. aureus given CCCCCCCCCCCCCC(=O)N[C@@H](CC(C)C)C(=O)N[C@H](C(=O)N1CCC[C@@H]1C(=O)N[C@H](C(=O)N[C@@H](C)C(=O)N[C@@H](CC(N)=O)C(=O)NC(C)C=O)C(C)O)C(C)O (stereo partly drawn) [Compound 108] (Myristoyl-L[Thr(3ξ)][dP][Thr(3ξ)]AN[ξA]-aldehyde) as the entry.
64 µg/mL
